Reference source for all entries: PubChem BioAssay AID886

- System Name: 3-hydroxyacyl-CoA dehydrogenase type-2 (Homo sapiens) (UniProt Q99714)
- Sequence (Q99714 whole entry, looked up): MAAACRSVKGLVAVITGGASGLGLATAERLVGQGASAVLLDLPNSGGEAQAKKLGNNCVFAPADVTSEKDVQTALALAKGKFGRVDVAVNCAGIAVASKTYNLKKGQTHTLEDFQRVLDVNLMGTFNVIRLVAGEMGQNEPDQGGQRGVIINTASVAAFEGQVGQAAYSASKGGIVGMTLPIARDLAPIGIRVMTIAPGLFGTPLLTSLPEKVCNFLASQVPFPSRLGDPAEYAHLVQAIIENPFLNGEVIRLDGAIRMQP
- Sequence (Q99714 whole entry, looked up): as above
- Procedure Text: qHTS Assay for Inhibitors of HADH2 (Hydroxyacyl-Coenzyme A Dehydrogenase, Type II); also: nearly all actives have a fitted effect of over 60% in size
- Conditions Used: recombinant HADH2, NADH fluorescence, beta-hydroxybutyryl-CoA; series mostly up to 57.1 µM
- Description: Assay Overview: NIH Molecular Libraries Screening Centers Network [MLSCN] NIH Chemical Genomics Center [NCGC] Structural Genomics Consortium [SGC] […] An increase in the fluorescence intensity due to conversion of NAD+ to NADH was used to measure the enzyme activity. Assay Protocol: Buffer: 100 mM Tris-HCl pH 9.0, containing 0.01 % Tween-20. […] The fluorescence intensity difference between the last and the first time points was used to compute reaction progress.
Screen size: about 73,000 compounds; about 2,500 (3.4%) were called active. About 7% were inconclusive and are not listed. Calls follow the shape of the dose curve; as a rule, active = well fitted inhibition curve with a large enough effect; inconclusive = small, poorly fitted or top-dose-only effect; inactive = no such curve, though single readings can be large or run the other way. Only a selection was taken, and actives are over-represented in it overall.
Field 'call' accepts TRUE for active, FALSE for inactive

{"Compound": "CC(Sc1nc2ccccc2c(=O)n1Cc1ccco1)C(=O)c1ccccc1 (configuration not stated)", "Group Label": "FALSE"}
{"Compound": "COc1ccc(N2CCN(C(c3cc4ccc(C)cc4[nH]c3=O)c3nnnn3C3CCCC3)CC2)cc1 (configuration not stated)", "Group Label": "FALSE"}
{"Compound": "O=C(c1ccccc1)N1CCN(C(=O)N2CCCCC2)CC1", "Group Label": "FALSE"}
{"Compound": "Cc1csc(NC(=O)NC2(C(F)(F)F)Oc3ccccc3O2)n1", "Group Label": "TRUE"}
{"Compound": "O=C(O)c1ccc(-n2cccc2)cc1O", "Group Label": "FALSE"}
{"Compound": "CCCN1C2=C(C(=O)CCC2)C(c2ccc(O)c(Br)c2)C2=C1CCCC2=O", "Group Label": "TRUE"}
{"Compound": "CCCC[C@@H]1C[C@H]1C(NC(=O)c1ccco1)c1ccc(C(=O)OC)cc1 (some centres not stated)", "Group Label": "FALSE"}
{"Compound": "COc1cccc(-c2nn(C)c3sc(C(=O)N4CCN(c5ccccc5)CC4)cc23)c1", "Group Label": "FALSE"}
{"Compound": "C=CC(=O)OCCOCCOCCOCCOC(=O)C=C", "Group Label": "FALSE"}
{"Compound": "COc1ccc(-c2cc3ccc(OCc4nn[nH]n4)cc3oc2=O)cc1", "Group Label": "TRUE"}

query: Test call, this compound: O=c1oc2cc(O)ccc2cc1-c1ccc(F)cc1
result: FALSE

query: What was the test verdict on CCCCC(=O)Nc1ccc2c(c1)OCCO2 ?
result: FALSE
